# Test system: F380Y/beta1
# ASSAY_OVERVIEW: modulators of BK channel variants, profiling panel, selectivity assay, cell-based, U2OS BacMam, thallium flux, beta subunits (AID 1259406);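 also: initial slope of Thallos dye fluorescence rise after thallium is added; log ratio against the mean of 0.3% DMSO vehicle wells on the same plate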
# RUN_CONDITIONS: at 30 µM
Calls of active or inactive are those of the source.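 The calls were made as follows: active = thallium flux through the channel raised or lowered by more than 3 SD from vehicle-only wells, actives on both sides; inactive = the rest.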
Output constraint: value belongs to YES for active, NO for inactive

How was CCOC(=O)C1CCCN(C(=O)Nc2c(-c3ccccc3)noc2C)C1 (stereo not given) classified in this test?
NO

How was CC(=O)CCCCn1cnc2c1c(=O)n(C)c(=O)n2C classified in this test?
NO

How was CC(C)(C)c1cc2nc(C(F)(F)F)cc(NN=Cc3ccccc3)n2n1 classified in this test?
NO

How was CCOC(=O)c1nn(-c2ccc(C(C)(C)C)cc2)c(=O)c(C#N)c1C classified in this test?
YES

How was O=C(O)CCSc1ccc2ccccc2c1 classified in this test?
NO

How was Nc1nc(Cl)nc2c1ncn2[C@@H]1O[C@H](CO)[C@@H](O)[C@H]1O classified in this test?
NO

How was CCCCCc1c(C)nc(-c2ccccn2)[nH]c1=O classified in this test?
NO

How was CSc1n[nH]c(N)c1S(=O)(=O)C(C)C classified in this test?
NO

How was O=c1c(O[C@@H]2O[C@H](CO)[C@H](O)[C@H](O)[C@H]2O)c(-c2ccc(O)c(O)c2)oc2cc(O)cc(O)c12 classified in this test?
NO

How was COC(=O)c1cnn(C(=O)Nc2c(C)cccc2C)c1C(OC)OC classified in this test?
NO

How was Nc1ccc2cn[nH]c2c1 classified in this test?
NO

How was CC(C)(C)c1cc(-c2nc(-c3ccc(C(F)(F)F)cc3)no2)n(Cc2ccccc2)n1 classified in this test?
NO

How was C=CCc1ccc(O)c(-c2ccc(O)c(CC=C)c2)c1 classified in this test?
YES

How was CC(=O)c1cc2cc(Cl)cc(Cl)c2oc1=O classified in this test?
NO

How was Cn1ncc2ccccc2c1=O classified in this test?
NO

How was O=C(C(=NN=Cc1ccc2c(c1)OCO2)c1ccccc1)c1ccccc1 classified in this test?
NO

How was Oc1ccccc1C=NCCN=Cc1ccccc1O classified in this test?
NO

How was CCOC(=O)c1cc(NC(=O)CC(C)(C)CC(=O)O)ccc1N1CCCCC1 classified in this test?
NO

How was O=C(NCC1CC1)c1ccccc1NS(=O)(=O)c1cccc2nonc12 classified in this test?
NO

How was CC1CC2C3CCC4=CC(=O)C=CC4(C)C3(F)C(O)CC2(C)C1(O)C(=O)CO (stereo not given) classified in this test?
NO

How was COc1cc(CCC(C)NC(=O)c2ccc(C)cc2)ccc1OC(=O)c1ccc(C)cc1 (stereo not given) classified in this test?
NO

How was Cc1ccc(NC(=S)NCCO)cc1 classified in this test?
NO

How was Clc1ccc(-c2cnc(-c3ccc(Cl)cc3)o2)cc1 classified in this test?
NO

How was Nc1ccc(Cl)cc1-c1nc2ccccc2[nH]1 classified in this test?
NO

How was O=C(CCn1nc(-c2ccc(F)cc2)ccc1=O)NCc1ccccc1 classified in this test?
NO

###

# ASSAY_OVERVIEW: differential killing of epithelial or mesenchymal cells, primary screen, imaging, PC-3E GFP, TEM4-18 mCherry, co-culture (AID 1345086);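 also: cells exposed to compound for 72 h before imaging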
# RUN_CONDITIONS: imaging cell counts, measured here: mesenchymal TEM4-18 mCherry cell survival, at 1 µM
Could you mark each record yes (1) if its normalised cell number falls strictly under 1, and no (0) if it equals or exceeds it?

Take the compound CNC1C(O[C@@H]2OC(CO)C(N)[C@H](O)C2O)OC2CC(N)[C@@H](OC3C(N)C[C@@H](N)C(O)[C@H]3O)OC2C1O (stereo partly drawn) and say whether its normalised cell number is less than 1.
no (0)

Take the compound CCC(=O)Oc1ccc2c(c1)CCC1C2CC[C@@]2(C)C1CC[C@@H]2OC(=O)CC (stereo partly drawn) and say whether its normalised cell number is less than 1.
no (0)

Take the compound Cc1cc(O)c2c(c1)Cc1cccc(O)c1C2=O and say whether its normalised cell number is less than 1.
no (0)

Take the compound Nc1nc(N)c2nc(CNc3ccc(C(=O)NC(CCC(=O)O)C(=O)O)cc3)cnc2n1 (stereo not drawn) and say whether its normalised cell number is less than 1.
yes (1)

Take the compound C/C=C/CC(C)C(O)C1C(=O)NC(CC)C(=O)N(C)CC(=O)N(C)C(CC(C)C)C(=O)NC(C(C)C)C(=O)N(C)C(CC(C)C)C(=O)NC(C)C(=O)NC(C)C(=O)N(C)C(CC(C)C)C(=O)N(C)C(CC(C)C)C(=O)N(C)C(C(C)C)C(=O)N1C (stereo not drawn) and say whether its normalised cell number is less than 1.
yes (1)

Take the compound COc1nc(N)nc2c1ncn2C1O[C@H](CO)[C@@H](O)[C@@H]1O (stereo partly drawn) and say whether its normalised cell number is less than 1.
yes (1)

Take the compound C[C@@H]1CC2C3CCC4=CC(=O)C=C[C@]4(C)[C@@]3(F)[C@@H](O)C[C@]2(C)[C@@]1(O)C(=O)COP(=O)(O)O (stereo partly drawn) and say whether its normalised cell number is less than 1.
no (0)

Take the compound CC(C)(C)OC(=O)NCCCC(NC(=O)C(Cc1ccccc1)NC(=O)OC(C)(C)C)C(=O)O (stereo not drawn) and say whether its normalised cell number is less than 1.
no (0)
